// provenance: PubChem BioAssay (NCI)

System: OVCAR-4 ovarian
Experiment: NCI-60 one-dose screen, 48 h (100 = growth as untreated, 0 = no growth, -100 = all killed)
Conditions: 10 µM unless noted
This is part of a sample that, as a whole, favours compounds with a hit. Of some 83,000 tested, about 20% had one in any assay. Activity calls are given as the source filed them. Rule for the calls: active = growth percent below 10; inactive = the rest.
Kindly supply the reported growth values for the records listed here.

Compound	Reported metric	Result
COc1ccc(-c2nc(Nc3ccc(F)cc3)nc(Nc3ccc4c(c3)nc(C)n4Cc3ccccc3)n2)cc1	growth	42.6% (inactive)
Cn1c2c(cc(S(=O)(=O)c3ccccc3)c1=O)CCc1c-2cnn1-c1ccccc1Cl	growth	101% (inactive)
COc1ccc(-c2nc3sccn3c2/C=C/C(=O)c2cc(OC)c(OC)c(OC)c2)cc1OC	growth	21.9% (inactive)
Nc1c(Br)cc(Br)cc1-c1n[nH]c(=O)[nH]c1=O	growth	98.5% (inactive)

// switching to the query compound
Q. Requested field: growth. Item: COc1ccc(/C=N/NC(=O)c2cnn(CC(O)Cc3ccccc3)c2N)cc1OC1CCCC1 (stereo not given)
A. 75.8% (inactive)

----------
System: MDA-MB-231 breast
Assay: NCI-60 one-dose screen, 48 h (100 = growth as untreated, 0 = no growth, -100 = all killed)
Conditions: 10 µM unless noted
Compounds without any hit were thinned out: in the full panel of roughly 83,000, 20% have a hit.
Reported metric: growth (%)
Answers are plain numbers, in %.

Compound string	System	Reported metric	Readout number
CCCCCCCCCCCC(=O)[O][Sn]([CH2]CCC)([CH2]CCC)[CH2]CCC	MDA-MB-231 breast	growth	-94.6
CCN(CC)CCCNc1ccc(C)c2sc3ccccc3c(=O)c12	MDA-MB-231 breast	growth	-12.1
Cc1cc(Cl)c2c(Cl)ccc(Cl)c2n1	MDA-MB-231 breast	growth	119

Dear colleague, could you please provide growth for the compounds listed below?
1. Cl.Fc1c[c-]c(-c2ccccn2)c(F)c1.[Pt].c1ccc([PH+](CC[PH+](c2ccccc2)c2ccccc2)c2ccccc2)cc1
2. CCOC(=O)c1sc(NC(=O)CN2CCC(Cc3ccccc3)CC2)nc1C
3. COc1ccc(C2OCC(C)(C)CO2)cc1OC

A.
[-74.2, 119, 103]

----------
System: SF-539 CNS
Test: NCI-60 one-dose screen, 48 h (100 = growth as untreated, 0 = no growth, -100 = all killed)
Settings: 10 µM unless noted
Compounds without any hit were thinned out: in the full panel of roughly 83,000, 20% have a hit.
For each record, write down the corresponding growth.
Numbers only, in %.

Would you please look over these solved cases?
Compound	Readout number
Clc1ccc2c(c1)C[C@H]1C[C@@H](c3cccs3)N2O1	92.3
CCOc1ccc(/C=N\N2CCCCCC2)cc1OCC	97.2
CCCN(CCC)c1ccc(/C=C/c2ccc3cc(OCC)ccc3n2)cc1	90.7

# batch size: 4; output growth per entry
1. CC(=O)Nc1ccc(S(=O)(=O)N/N=C\c2ccc(Cl)c(Cl)c2)cc1
2. Nc1cccc2c(=S)c3ccccc3[nH]c12
3. O=C1CC2c3cc(-c4cc5ccccc5o4)ccc3CCN2C(=O)N1c1ccccc1 (configuration not stated)
4. Cc1nc(NN)c([N+](=O)[O-])c(NN)n1

A.
1: 111; 2: 96.9; 3: 106; 4: 95.2

For every item below, please supply its growth.
1. c1ccc(-c2nc(N3CCOCC3)c3c4c(sc3n2)CCCCCC4)nc1
2. CN1CCN(C)c2cncc(Br)c2C1=O
3. CC(=O)OC[C@]1(C)C=C2C(=O)[C@](C)(O)C3(CC3)C(C)=C2[C@H]1OC(C)=O
4. CC(C)(C)[Si](C)(C)OC1[C@@H](COC(=O)NC(=O)CCl)O[C@@H](n2cnc3c(N)ncnc32)[C@H]1O[Si](C)(C)C(C)(C)C (some centres not stated)
5. C[C@H]1C(=O)C23CCC1C[C@@]21O[C@@H]2C(C)(C)C=CC(=O)C23COC1=O
6. CN(C)C(=S)SCN1C(=O)c2ccc([N+](=O)[O-])cc2S1(=O)=O
7. Cc1ccc2c(c1)c(Sc1ccc(C(=O)NO)cc1)c1n2CN(C)CC1
8. FC(F)(F)c1cc(CNc2nc(Cl)ncc2Br)cc(C(F)(F)F)c1

A.
77
109
95.2
89.8
111
102
-35.1
85

Look at each compound and report its growth.
1. CCC(=O)Nc1nnc(Cc2ccc(OC)c(OC)c2)s1
2. N#CCCN1CCN(CCC#N)C1=S
3. Cn1c(=O)c(S(=O)(=O)c2ccccc2)cc2ccc3c(cnn3-c3ccc(Cl)cc3)c21
4. COc1ccc(-c2c3c(N)c4c(nc3nc3c2c(C)nn3-c2ccccc2)CCCCC4)cc1
5. Cc1cc(C)c(S(=O)O)c(C)c1

A.
-74.1
101
45
93.9
104

// batch mode: one growth value per listed entry
1. COc1cc(C2C3=C(COC3=O)N(CCO)c3cc4c(cc32)OCO4)cc(OC)c1O (configuration not stated)
2. CCOc1ccc(-c2cnnn2-c2nonc2-n2cccc2)cc1

A.
12.7
-19.5

----------
Give growth for every item shown.
Tested on: SW-620 colon
Assay: NCI-60 one-dose screen, 48 h (100 = growth as untreated, 0 = no growth, -100 = all killed)
Conditions: 10 µM unless noted
This is part of a sample that, as a whole, favours compounds with a hit. Of some 83,000 tested, about 20% had one in any assay.
Numbers only, in %.

Take a look at these entries with their results.
Molecule	Unit info	growth
COc1ccc(S(=O)(=O)ON=C2C=C(C)C(=O)C(C)=C2)cc1	%	60.7
Cc1ccc(N(CSc2ccc(Cl)cc2)CSc2ccc(Cl)cc2)cc1	%	31.4
O=C1/C(=C/c2ccc(Oc3ccccc3)cc2)N=C(c2ccccc2)N1CCc1cccs1	%	80.1
O/N=C/c1cccs1	%	104

Hi there! I need growth for each item below, if you can.
1. COc1ncnc2c1ncn2C/C(Br)=C(\Br)CCl
2. COc1cc2oc(-c3ccc(O)cc3)cc(=O)c2c(O)c1I
3. C[C@@H](Oc1cc(-c2cnn(C3CC4(CCNCC4)C3)c2)cnc1N)c1c(F)ccc(Cl)c1Cl

A.
-73.6
109
-46

Consider the following items and state reported growth for each.
1. OC[C@@H](O)[C@@H](O)CO
2. CCC(C)Oc1cc(/C=N/NC(=O)c2cnn3c2NC(c2ccccc2)C3)ccc1OC (configuration not stated)
3. Cc1ccc2nc(NC(=O)CSC(=S)N3CCN(Cc4ccccc4)CC3)sc2c1
4. COC(=O)[C@H]1CCCN1C(=O)[C@H]1CCCN1C(=O)[C@@H](Cc1c[nH]c2ccccc12)NC(=S)Nc1cc(C(F)(F)F)cc(C(F)(F)F)c1
5. CCCCCCCC/C=C\CCCCCCCCOc1cccc(CC(=O)NCC[N+]2(C)CCCCC2)c1
6. CCCCNNC(=O)c1ccc(Br)cc1
7. COC1(OC)C2(Cl)C=C(c3ccccc3)C1(Cl)C(Cl)=C2Cl (configuration not stated)
8. O=C(c1cnn2c1NC(c1ccc(F)cc1)C2)N1CCCCC1 (configuration not stated)

A.
98.4
27.3
-84.7
64.2
59.7
32.6
115
102

----------
System: OVCAR-3 ovarian
Assay: NCI-60 one-dose screen, 48 h
Conditions: 10 µM unless noted
This is part of a sample that, as a whole, favours compounds with a hit. Of some 83,000 tested, about 20% had one in any assay. The source made the active and inactive calls. Rule for the calls: active = growth percent below 10; inactive = the rest.
Outcome field: choose from active, inactive

These recorded examples may help you get a feel for the data.
Compound	Label class
O=[N+]([O-])c1ccc(C=C2C(Cl)=C(Cl)C(Cl)=C2Cl)cc1	active
c1ccc(-c2nc(N3CCOCC3)c3c4c(sc3n2)CCCCCC4)nc1	inactive
O=C(NCc1ccco1)C1CCN(S(=O)(=O)c2ccc(Cl)cc2)CC1	active
CC(=O)OC[C@H](O)[C@@]1(O)CC[C@H]2[C@@H]3CCC4=CC(=O)CC[C@]4(C)[C@H]3[C@@H](O)C[C@@]21C	inactive
O=c1[nH]c(=O)n(Cc2ccc(F)cc2)cc1F	inactive

Q. Tell me the recorded outcome of this test for O=C1/C(=C/c2ccc(F)cc2)CN(Cc2cn(CCNc3ccnc4cc(Cl)ccc34)nn2)C/C1=C\c1ccc(F)cc1 .
A. active

Q. Please give the result for COc1ccc(Sc2ccc3[nH]c(=O)nc(N)c3c2)cc1 too.
A. inactive

Q. Do the same for Nc1nc2c(s1)CCc1c-2c(Br)n(Cc2ccccc2)c1Br please
A. inactive

Q. // repeat for COc1ncc(F)c(OC)n1 and report
A. inactive

Q. Input COC1(OC)C2(Cl)C=C(c3ccccc3)C1(Cl)C(Cl)=C2Cl (stereo not given)
A. inactive

----------
Tested on: HCC-2998 colon
Assay: NCI-60 one-dose screen, 48 h (100 = growth as untreated, 0 = no growth, -100 = all killed)
Settings: 10 µM unless noted
About 83,000 compounds went through this panel and 20% of them were active in at least one assay; those are over-represented in the sample as a whole.
Reported metric: growth (%)
Answers are plain numbers, in %.

Solved cases below.
Compound	System	growth, %
O=C(Nc1ccc(Cl)c(Cl)c1)OCn1ncc2ccc([N+](=O)[O-])cc21	HCC-2998 colon	93.8
Brc1ccc(Br)nn1	HCC-2998 colon	-53.5
COc1ccc(-c2nc3sccn3c2/C=C/C(=O)c2cc(OC)c(OC)c(OC)c2)cc1OC	HCC-2998 colon	40.3
CN([N-]C(=O)CC(=O)[N-]N(C)C(=S)c1ccccc1)C(=S)c1ccccc1.[Cu+2]	HCC-2998 colon	-94.2
Clc1ccc2c(N3CCN(c4ccnc(NC5CCCCC5)n4)CC3)ccnc2c1	HCC-2998 colon	29.2

Quick one: give me growth for each item below, same order please.
1. COc1ccc(/C=C/C(=O)N2CCC(O)CC2)cc1OC1CCCC1
2. Clc1ccc(Nc2nc(Nc3ccccc3)nc(Nc3ccc(-c4cc(-c5ccc(Cl)cc5)on4)cc3)n2)cc1
3. COC(=O)c1c2c(c(C)[n+]([O-])c1C)C(=O)C=C(NCc1ccc(Cl)cc1)C2=O
4. CCCCCCCC/C=C\CCCCCCCCOc1cccc(CC(=O)NCC[N+]2(C)CCCCC2)c1
5. O=C1/C(=C/c2ccc(Cl)cc2)N=C(c2ccccc2)N1CCc1cccs1
6. COC(=O)c1cc(-c2ccc(C)cc2)n(C(=O)CSc2nc3sc(C(N)=O)c(C)c3c(=O)n2Cc2ccccc2)n1

A.
[111, 56.4, -34.6, 67.9, 25.4, 108]

Quick one: give me growth for each item below, same order please.
1. COC(=O)c1c2c(c(C)[n+]([O-])c1C)C(=O)C=C(NCc1cccc(OC)c1)C2=O
2. CC(=O)OC[C@H](O)[C@@]1(O)CC[C@H]2[C@@H]3CCC4=CC(=O)CC[C@]4(C)[C@H]3[C@@H](O)C[C@@]21C
3. CCSc1nnc2c3cc(Br)ccc3n(C)c2n1
4. Cc1ccc(-c2c3c(N)c4c(nc3nc3c2c(C)nn3-c2ccccc2)CCCC4)cc1
5. COc1ccc(C2=NOC(CC(=O)N(CCO)CCO)C2)cc1OC1CCCC1 (stereo not given)
6. Cc1ccc(S(=O)(=O)N2CCc3ccc(O)c4c3C2Cc2ccc3c(c2-4)OCO3)cc1 (stereo not given)
7. COc1cccc(OC)c1OC(=O)c1ccccc1

A.
1. -64.7
2. 103
3. 111
4. 107
5. 103
6. -25.8
7. 94.3

Provide each entry's growth from the list below.
1. O=C1CCC(N2Cc3c(C#CCCCNC(=O)c4cc5c(o4)C(=O)c4ccccc4C5=O)cccc3C2=O)C(=O)N1 (stereo not given)
2. Cc1cccc2c(=O)c3c(sc12)c(NCCNCCO)nc1ccccc13

A.
1: -64.1; 2: -24.9
